Experiment: activity coefficient (dimensionless); of the first substance listed, at infinite dilution; xn = mol fraction of the nth substance listed
Settings: 343 K; 87.4 kPa; Liquid; Chromatography; x1 = 0
activity coefficient for assorted compounds
Assay Endpoint: activity coefficient

# Compound, Assay Endpoint, Recorded Result
measured = [
    ("ClC(Cl)(Cl)Cl [tetrachloromethane] + O=S(=O)([N-]S(=O)(=O)C(F)(F)F)C(F)(F)F.O=S(=O)([N-]S(=O)(=O)C(F)(F)F)C(F)(F)F.c1ccc2cc(C[N+]3(CCCCCCCCC[N+]4(Cc5ccc6ccccc6c5)CCCC4)CCCC3)ccc2c1", "activity coefficient", 1.52),
    ("O=Cc1ccccc1 [benzaldehyde] + O=S(=O)([N-]S(=O)(=O)C(F)(F)F)C(F)(F)F.O=S(=O)([N-]S(=O)(=O)C(F)(F)F)C(F)(F)F.c1ccc2cc(C[N+]3(CCCCCCCCC[N+]4(Cc5ccc6ccccc6c5)CCCC4)CCCC3)ccc2c1", "activity coefficient", 0.999),
    ("CCCCCCCC [octane] + O=S(=O)([N-]S(=O)(=O)C(F)(F)F)C(F)(F)F.O=S(=O)([N-]S(=O)(=O)C(F)(F)F)C(F)(F)F.c1ccc2cc(C[N+]3(CCCCCCCCC[N+]4(Cc5ccc6ccccc6c5)CCCC4)CCCC3)ccc2c1", "activity coefficient", 6.71),
    ("Cc1ccc(C)cc1 [1,4-dimethylbenzene] + O=S(=O)([N-]S(=O)(=O)C(F)(F)F)C(F)(F)F.O=S(=O)([N-]S(=O)(=O)C(F)(F)F)C(F)(F)F.c1ccc2cc(C[N+]3(CCCCCCCCC[N+]4(Cc5ccc6ccccc6c5)CCCC4)CCCC3)ccc2c1", "activity coefficient", 0.992),
]

Where do the numbers come from? From the NIST ThermoML archive (doi:10.1016/j.jct.2014.12.023).
